These entries and their values trace back to patent US9353150B2.

Task for the reader: assign each of the following compounds its reported IC50.
Tested on: U-937 (hystiocytic lymphoma)
protocol_summary: 72-hour IC50 determination for non-adherent cells using MTS
Type: cell-based, human
stated_conditions: 72-hour exposure; MTS; error is standard deviation of the mean, n ≧ 3; read-out: U-937, 72-hour IC50 (Table E1-2)
Numbers only, in nM.

Below, 2 compounds whose answers are already recorded.
>  <compound>
CC(=O)OC[C@]12SS[C@@]3(C[C@]4([C@]56C[C@@]78SS[C@@](COC(C)=O)(C(=O)N7[C@H]5Nc5ccccc56)N(C)C8=O)c5ccccc5N[C@@H]4N3C1=O)C(=O)N2C

>  <experimental_target>
U-937 (hystiocytic lymphoma)

>  <IC50, nM>
4.7

$$$$
>  <compound>
CN1C(=O)[C@@]23C[C@]4([C@]56C[C@@]78SSS[C@@](CO)(C(=O)N7[C@H]5Nc5ccccc56)N(C)C8=O)c5ccccc5N[C@@H]4N2C(=O)[C@]1(CO)SSS3 [Compound 5, (+)-chaetocin C]

>  <experimental_target>
U-937 (hystiocytic lymphoma)

>  <IC50, nM>
0.75

$$$$

Attention now turns to another entry.
Query (compound): CN1C(=O)C23CC4(c5c[nH]c6ccccc56)c5ccccc5N(S(=O)(=O)c5ccccc5)C4N2C(=O)C1SS3 (stereo not drawn) ; field requested: IC50
2.8
